# MEASUREMENT_SETUP: in ethanol, 318.15 K
EXPERIMENTAL_READOUT: solubility (mole fraction)

1) CC(C)[C@H](N)C(=O)O = 0.000357

---

# MEASUREMENT_SETUP: in isopropanol, 323.15 K
EXPERIMENTAL_READOUT: solubility (mole fraction)

1) CC(C)[C@H](N)C(=O)O = 0.00011

---

# MEASUREMENT_SETUP: in methyl acetate, 308.15 K
EXPERIMENTAL_READOUT: solubility (mole fraction)

1. CC(C)[C@H](N)C(=O)O = 5.1e-05

---

# MEASUREMENT_SETUP: in n-propanol, 303.15 K
EXPERIMENTAL_READOUT: solubility (mole fraction)

1. CC(C)[C@H](N)C(=O)O = 3.7e-05

---

# MEASUREMENT_SETUP: in water, 313.15 K
EXPERIMENTAL_READOUT: solubility (mole fraction)

1. CC(C)[C@H](N)C(=O)O = 0.0102

---

# MEASUREMENT_SETUP: in acetonitrile, 288.15 K
EXPERIMENTAL_READOUT: solubility (mole fraction)

1. CC(C)[C@H](N)C(=O)O = 3.3e-05

---

# MEASUREMENT_SETUP: in methyl acetate, 298.15 K
EXPERIMENTAL_READOUT: solubility (mole fraction)

1. CC(C)[C@H](N)C(=O)O = 3.6e-05

---

# MEASUREMENT_SETUP: in methanol, 288.15 K
EXPERIMENTAL_READOUT: solubility (mole fraction)

1) CC(C)[C@H](N)C(=O)O = 0.000601

---

# MEASUREMENT_SETUP: in isobutanol, 313.15 K
EXPERIMENTAL_READOUT: solubility (mole fraction)

1. CC(C)[C@H](N)C(=O)O = 0.000185

---

# MEASUREMENT_SETUP: in n-butanol, 293.15 K
EXPERIMENTAL_READOUT: solubility (mole fraction)

1. CC(C)[C@H](N)C(=O)O = 4.7e-05

---

# MEASUREMENT_SETUP: in acetonitrile, 298.15 K
EXPERIMENTAL_READOUT: solubility (mole fraction)

1. CC(C)[C@H](N)C(=O)O = 5.6e-05

---

# MEASUREMENT_SETUP: in ethanol, 323.15 K
EXPERIMENTAL_READOUT: solubility (mole fraction)

1. CC(C)[C@H](N)C(=O)O = 0.00038

---

# MEASUREMENT_SETUP: in isopropanol, 283.15 K
EXPERIMENTAL_READOUT: solubility (mole fraction)

1. CC(C)[C@H](N)C(=O)O = 1.6e-05

---

# MEASUREMENT_SETUP: in isobutanol, 323.15 K
EXPERIMENTAL_READOUT: solubility (mole fraction)

1. CC(C)[C@H](N)C(=O)O = 0.000258

---

# MEASUREMENT_SETUP: in isopropanol, 318.15 K
EXPERIMENTAL_READOUT: solubility (mole fraction)

1. CC(C)[C@H](N)C(=O)O = 9e-05

---

# MEASUREMENT_SETUP: in methyl acetate, 283.15 K
EXPERIMENTAL_READOUT: solubility (mole fraction)

1) CC(C)[C@H](N)C(=O)O = 3e-05
